Taken from ChEMBL document CHEMBL4513216.

Listed here are molecules together with their documented cytotoxicity at 10 µM.
assay: Toxicity liver stage against HepG2, at 10uM; type: cell-based; set-up: test concentration 10 uM, cell line HepG2-A16-CD81EGFP; conditions: human, HepG2-A16-CD81EGFP cells; read-out: INHIBITION
Provide the reading as a plain figure in %.

Below, 4 molecules whose answers are already recorded.
>  <MOLECULE>
CO[C@H]1CNC[C@@H]1NC(=O)CCc1nc(-c2ccccc2)no1

>  <cytotoxicity at 10 µM / %>
-1.13

$$$$
>  <MOLECULE>
O=C(OCc1cccc(F)c1)c1cccc(C(=O)N2CCCC2)n1

>  <cytotoxicity at 10 µM / %>
-1.6

$$$$
>  <MOLECULE>
O=C(c1ccc(F)cc1)N1CC[C@H]2[C@H]1CCN2CC1CC1

>  <cytotoxicity at 10 µM / %>
-1.92

$$$$
>  <MOLECULE>
O=C(C1CCOCC1)N1C[C@H]2CC(OCc3ccccc3)C[C@H]2C1 (stereo not given in full)

>  <cytotoxicity at 10 µM / %>
-5.59

$$$$

q: Please supply the value of reported cytotoxicity at 10 µM for the item O=C(NCCN1CCCCC1)c1nc(-c2ccc3cc[nH]c3c2)no1
a: -8.54

* * *

The following molecules are listed with their measured cytotoxicity at 10 µM values.
assay: Toxicity liver stage against HepG2, at 10uM; format: cell-based; set-up: test concentration 10 uM, cell line HepG2-A16-CD81EGFP; details: human, HepG2-A16-CD81EGFP cells; read-out: INHIBITION
Put down the number, then write its unit next to it.

>  <MOLECULE>
Cn1cc(C(=O)N[C@@H]2CN(Cc3cccnc3)[C@@H]3CCCO[C@@H]32)cn1

>  <cytotoxicity at 10 µM>
1.18%

$$$$

q: Dear colleague, please send me the reported cytotoxicity at 10 µM for CCN(CC)CC1CN(Cc2ccc(C)s2)Cc2nccn2C1 (stereo not given) when you can.
a: 2.32%

* * *

Listing: cytotoxicity at 10 µM of selected compounds
test: Toxicity liver stage against HepG2, at 10uM; type: cell-based; set-up: test concentration 10 uM, cell line HepG2-A16-CD81EGFP; conditions: human, HepG2-A16-CD81EGFP cells; read-out: INHIBITION
Express the result in % but write the number alone.

q: // fetch cytotoxicity at 10 µM given entry CN(CC(=O)N1CCOCC(CO)C1)Cc1ccccn1 (centres undefined)
a: 0.382

q: For the compound O=C(CNC(=O)c1ccc2c(c1)CCC2)NCCNc1ncccn1 , give its reported cytotoxicity at 10 µM.
a: -6.5

q: Note cytotoxicity at 10 µM for the compound shown: Cc1nc2c(c(NC3CC3)n1)CCN(C(=O)CCO)CC2
a: -68.3

q: Identify measured cytotoxicity at 10 µM associated with Cc1ccc(CNC(=O)Cc2c(C)nc3c(c2C)c(=O)[nH]n3C)cc1
a: -8.6

q: Report cytotoxicity at 10 µM, nothing else, for this compound: Cc1nc(CN2CCN(C(=O)COc3c(C)ccc(C)c3C)CC2)no1
a: -1.4

q: Give a short answer stating reported cytotoxicity at 10 µM for CC(C)[C@H]1CN(Cc2ccncc2)C[C@@H]1NC(=O)C1(C#N)CCOCC1 .
a: -4.81

q: Tell me measured cytotoxicity at 10 µM for O=C1CC2(CCN(CCCO)CC2)CN1Cc1ccc(F)c(F)c1 please.
a: -7.73

q: Hello, please tell me recorded cytotoxicity at 10 µM for this one: N#CC1C(=O)Nc2c(cnn2C2CCCC2)C12CCCC2 (centres undefined)
a: -7.54

q: Please list cytotoxicity at 10 µM recorded for the compound CN(C)CCN(C)S(=O)(=O)Cc1ccc(Br)cc1
a: 0.936

* * *

assay: Toxicity liver stage against HepG2, at 10uM; assay type: cell-based; set-up: test concentration 10 uM, cell line HepG2-A16-CD81EGFP; conditions: human, HepG2-A16-CD81EGFP cells; read-out: INHIBITION
Measured cytotoxicity at 10 µM accompanies every entry in the list below.
Respond numerically; units are % and should not be typed.

>  <COMPOUND>
CN1CCN(C(C)(C)CNC(=O)C2CCCN2S(C)(=O)=O)CC1 (centres undefined)

>  <cytotoxicity at 10 µM [%]>
7.45

$$$$

q: Please supply the value of reported cytotoxicity at 10 µM for the item NC(=O)NC(=O)CNC1(c2ccc(Cl)cc2)CCCC1
a: 15.7

q: Assign cytotoxicity at 10 µM to the following record: O=C1CCC(=O)N1CCOc1nc(-c2ccccc2Cl)no1
a: 6.97

q: Look up and report measured cytotoxicity at 10 µM for this entry: CCOC(=O)NCc1nn(CCN2CCCC2)c(=O)c2ccccc12
a: 9.66

* * *

experiment: Toxicity liver stage against HepG2, at 10uM; type: cell-based; parameters: test concentration 10 uM, cell line HepG2-A16-CD81EGFP; settings: human, HepG2-A16-CD81EGFP cells; read-out: INHIBITION
TEST_READOUT: cytotoxicity at 10 µM
Report as: number unit

>  <COMPOUND>
CN(C)c1cc(C2CCCNC2)ccn1 (stereo not drawn)

>  <RESULT>
-2.68%

$$$$
>  <COMPOUND>
Cc1nc(CCN)cc(N2CCC(O)(c3ccc(Cl)cc3)CC2)n1

>  <RESULT>
-2.24%

$$$$
>  <COMPOUND>
CCOC(=O)N1CC(=O)N(Cc2ccc(OC)cc2)CC(O)C1 (stereo not drawn)

>  <RESULT>
-2.67%

$$$$
>  <COMPOUND>
COc1ccc2c(C)c(C(=O)NC3CCN(S(C)(=O)=O)CC3)oc2c1

>  <RESULT>
8.55%

$$$$
>  <COMPOUND>
CN(C)C(=O)C1CCCN1c1ccnc2ccsc12 (stereo not drawn)

>  <RESULT>
-16.8%

$$$$

q: Read off the recorded cytotoxicity at 10 µM for COc1cccc(S(=O)(=O)N2CCCc3c(OC)nn(C)c3C2)c1
a: -120%

q: Note down cytotoxicity at 10 µM recorded for Cc1cnc(NC(=O)c2csc(NC3CCCC3)n2)s1
a: 45.8%

q: Input COc1cccc(F)c1C(C)NC(=O)NCc1ccnc(C)n1 (stereo not drawn) , output reported cytotoxicity at 10 µM.
a: -10.9%

q: Respond only with cytotoxicity at 10 µM recorded for Cc1ccsc1CNC(=O)Cc1c(C)nc2c(c1C)c(=O)[nH]n2C
a: -0.168%

q: Return cytotoxicity at 10 µM for the following compound: CCC1CN(C(=O)c2cnc(-c3cnn(C)c3)s2)CCO1 (stereo not drawn)
a: 8.79%

* * *

In this section, each of the molecules is paired with its reported cytotoxicity at 10 µM.
test: Toxicity liver stage against HepG2, at 10uM; format: cell-based; set-up: test concentration 10 uM, cell line HepG2-A16-CD81EGFP; conditions: human, HepG2-A16-CD81EGFP cells; read-out: INHIBITION
Just the number in %, nothing appended.

Answered cases to consult:
>  <MOLECULE>
Cn1cc(CN2CC[C@H](O)[C@@H]2Cc2ccccc2)cn1

>  <cytotoxicity at 10 µM [%]>
-73

$$$$
>  <MOLECULE>
COc1ccc(CCC2CCCN(CC(=O)O)C2)cc1 (stereo unspecified)

>  <cytotoxicity at 10 µM [%]>
3.38

$$$$
>  <MOLECULE>
CC(C)CC(C(=O)N(C)Cc1ncnn1C)N1CCCCC1=O (stereo unspecified)

>  <cytotoxicity at 10 µM [%]>
-0.159

$$$$

The record that follows has no cytotoxicity at 10 µM shown yet.
q: // fetch cytotoxicity at 10 µM given entry CCN(Cc1ccncc1)C(=O)c1cn(CCCc2ccccc2)nn1
a: 3

* * *

experiment: Toxicity liver stage against HepG2, at 10uM; format: cell-based; parameters: test concentration 10 uM, cell line HepG2-A16-CD81EGFP; details: human, HepG2-A16-CD81EGFP cells; read-out: INHIBITION
Reported cytotoxicity at 10 µM values are given for each entry in this list.
Dear colleague, please return just the value in %, with no unit written.

>  <COMPOUND>
C=C/C=c1\c(=C/C)oc2c(NCc3ccccc3)ncnc12

>  <cytotoxicity at 10 µM, %>
21.3

$$$$
>  <COMPOUND>
COc1ccc(Cn2c(C3CCNCC3)cc3cccnc32)cc1

>  <cytotoxicity at 10 µM, %>
-4.45

$$$$
>  <COMPOUND>
COc1cc(F)ccc1N1CCN(Cc2nnc(C3CC3)o2)CC1

>  <cytotoxicity at 10 µM, %>
14.8

$$$$
>  <COMPOUND>
CCC(=O)NCC(=O)NC(Cc1ccccc1)c1sccc1C (stereo not drawn)

>  <cytotoxicity at 10 µM, %>
9.25

$$$$

Consider the additional compound presented here.
q: Indicate its recorded cytotoxicity at 10 µM; the compound in question is Cc1nc(C)n(C2CCCN(C(=O)CCOc3cccc(F)c3)C2)n1 (stereo not drawn)
a: -1.79
